target: human TDO2 (Homo sapiens (Human)); assay: Cellular assay for TDO2 activity, A172 cells naturally expressing hTDO2; assay type: cell-based; conditions: human glioblastoma A172 cells, overnight incubation, kynurenine in supernatant
pIC50: −log10 of the molar value.
PROPERTY_NAME: pIC50

Example results:
                                   molecule                             target  property_name  observed_result
0  O=c1ccc(-c2c[nH]c3cc(F)ccc23)c[nH]1 [Example 69]  human TDO2 (Homo sapiens (Human))          pIC50             6.43
1  CS(=O)(=O)NCCC(=O)Nc1ccc(-c2c[nH]c3cc(F)ccc23)cn1 [Example 64]  human TDO2 (Homo sapiens (Human))          pIC50             6.06

(P) O=S(=O)(CCO)NC1CCN(c2ccc(-c3c[nH]c4cc(F)ccc34)cn2)CC1 [Example 62]
(Q) NC(=O)CCNS(=O)(=O)c1ccc(-c2c[nH]c3cc(F)ccc23)cn1 [Example 99]
(Q) When the recorded pIC50 values are compared, which is smaller: that of P or that of Q ? Answer with the label corresponding to your selection.
(A) P
(P: 5.89, Q: 6.43)

----------
biological target: human TDO2 (Homo sapiens (Human), UniProt P48775); assay: Cellular assay for TDO2 activity, A172 cells naturally expressing hTDO2; type: cell-based; settings: human glioblastoma A172 cells, overnight incubation, kynurenine in supernatant
Sequence (P48775 whole entry): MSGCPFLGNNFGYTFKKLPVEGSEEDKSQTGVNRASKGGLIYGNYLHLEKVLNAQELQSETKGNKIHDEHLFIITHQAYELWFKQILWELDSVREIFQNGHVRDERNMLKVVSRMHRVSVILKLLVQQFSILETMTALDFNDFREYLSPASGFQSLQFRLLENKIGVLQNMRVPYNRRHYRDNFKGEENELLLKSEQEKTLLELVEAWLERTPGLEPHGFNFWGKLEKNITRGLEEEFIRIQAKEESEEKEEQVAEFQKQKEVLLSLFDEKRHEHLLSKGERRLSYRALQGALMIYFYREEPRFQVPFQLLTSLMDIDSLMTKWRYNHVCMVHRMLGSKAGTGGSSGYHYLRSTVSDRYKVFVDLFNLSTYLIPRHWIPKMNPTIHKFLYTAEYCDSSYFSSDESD
PROPERTY_NAME: IC50 (nM)

Example results:
>>> df
                                   compound  endpoint_unit  observed_result
0  CC(=O)NCCNS(=O)(=O)c1ccc(-c2c[nH]c3cc(F)ccc23)cn1 [Example 92]             nM              330
1  N#Cc1ccc2[nH]cc(-c3ccc(S(=O)(=O)N4CCNCC4)nc3)c2c1 [Example 97]             nM             2400
2  CN(CCNS(=O)(=O)c1ccc(-c2c[nH]c3cc(F)ccc23)cn1)S(C)(=O)=O [Example 89]             nM              350
3  O=S(=O)(c1ccc(-c2c[nH]c3cc(F)ccc23)cn1)N1CCNCC1 [Example 87]             nM              230
4  O=S(=O)(c1ccc(-c2c[nH]c3cc(F)c(F)cc23)cn1)N1CCNCC1 [Example 94]             nM              240

(I) O=C1Cc2ncc(-c3c[nH]c4cc(F)ccc34)cc2N1 [Example 76]
(II) O=c1[nH]c2ncc(-c3c[nH]c4cc(F)ccc34)cc2o1 [Example 71]
(Q) Quick check, higher IC50 between I and II ? Answer with the label corresponding to your selection.
(A) I

----------
molecular target: human TDO2 (Homo sapiens (Human), UniProt P48775); assay: Assay for TDO2 enzymatic activity determination; format: biochemical; settings: human recombinant TDO2, L-Trp 1 mM, kynurenine absorbance at 480 nm
pIC50: −log10 of the molar value. Structures can show the parent of a compound that is named as a salt.
PROPERTY_NAME: pIC50

Example results:
>>> df
                                 compound                                    target  observed_result
0  CN(C)CCOc1ccc(-c2c[nH]c3cc(F)ccc23)cn1  human TDO2 (Homo sapiens (Human), UniProt P48775)             4.41
1        COc1ccc(-c2c[nH]c3cc(F)ccc23)cn1  human TDO2 (Homo sapiens (Human), UniProt P48775)             6.14
2         Nc1ccc(-c2c[nH]c3cc(F)ccc23)cn1  human TDO2 (Homo sapiens (Human), UniProt P48775)             5.96

(A) CS(=O)(=O)NCCNc1ccc(-c2c[nH]c3cc(F)ccc23)cn1 [Example 26, hydrochloride]
(B) Cc1ccc(-c2c[nH]c3cc(F)ccc23)cn1
(Q) When the recorded pIC50 values are compared, which is smaller: that of A or that of B ? Answer with the label corresponding to your selection.
(A) A
(A: 6.15, B: 6.43)
